System Tested: α4β2-nicAchR (Rattus norvegicus, UniProt P09483+P12390)
Assay Remarks: [3H]-cytisine competition binding in rat cortical membranes
Test Settings: read-out: Ki, [3H]-cytisine binding (α4β2-nicAchR)
Readout Label: pKi
The value called pKi is obtained by taking minus log10 of the concentration in mol/L.

q: Given the compound CN1CCCC2C(c3ccccc3)C(C3=NCCCC3)C(c3ccccc3)CC21 (stereo not shown) [Lobinaline, lobinaline] , what is its reported pKi?
a: 5.97
